# Test system: Echinochloa crus-galli
# TEST DESCRIPTION: Herbicidal activity against Echinochloa crus-galli (barnyard grass) assessed as inhibition of seedling growth at 100 ug/ml at 28 +/- 1 degC measured after 65 hr by cup test
# Type: functional

{"columns": ["INPUT SMILES", "inhibition at 100 µg/mL"],
 "data": [
  ["COc1ccc(/C(O)=C2\\C(=O)CN(C3CC3)C2=O)cc1", "66%"],
  ["CCCc1ccc(/C(O)=C2\\C(=O)CN(C3CC3)C2=O)cc1", "41%"],
  ["COCCOCOc1ccc(/C(O)=C2\\C(=O)CN(C(C)C)C2=O)cc1", "21%"],
  ["CCCCCc1ccc(/C(O)=C2\\C(=O)CN(C(C)C)C2=O)cc1", "12%"],
  ["Cc1ccc(/C(O)=C2\\C(=O)CN(C(C)C)C2=O)c(C)c1", "76%"],
  ["CC(C)(C)c1ccc(/C(O)=C2\\C(=O)CN(C(C)(C)C)C2=O)cc1", "18%"],
  ["COc1ccc(/C(O)=C2\\C(=O)CN(C(C)C)C2=O)cc1OC", "76%"],
  ["COc1ccc(/C(O)=C2\\C(=O)CN(C(C)C)C2=O)c(OC)c1", "80%"]
]}
